Test system: human SMAD7 mRNA
assay.details: Antisense inhibition of human SMAD7 mRNA expression in Hep3B cells by 3-10-3 cEt gapmers, 10,000 nM, electroporation (Example 2)
Format: cell-based
assay.context: Hep3B cells, electroporation with 10,000 nM antisense oligonucleotide, approximately 24 hours, SMAD7 mRNA by RT-PCR (RTS5062), relative to untreated control cells
Strand notation (5' to 3'): a small letter for the sugar, then the base; units joined by * are phosphorothioate-linked, units joined directly phosphodiester-linked; [ ] holds rarer units or linkages, { } end groups; capitals alone tell only the bases. k = constrained ethyl (cEt); [5mC] = 5-methylcytosine; d = 2'-deoxy (DNA)
Label True when % Inhibition is at or above 30%; otherwise label False.

> print(dat)
                                  substance  experimental.system  class
1  798811 (k[5mC]*kA*kG*dA*dA*dG*dA*dA*dG*dT*dT*dG*dG*kG*kA*kA; antisense) [compound 798811]     human SMAD7 mRNA  False
2  830189 (antisense kT*kT*kG*dG*dA*dG*d[5mC]*dA*dA*d[5mC]*dA*d[5mC]*d[5mC]*kA*kG*kA) [compound 830189]     human SMAD7 mRNA   True
3  830079 (kA*kT*kA*d[5mC]*d[5mC]*d[5mC]*dT*dG*d[5mC]*dA*d[5mC]*dT*dT*kT*k[5mC]*kT; antisense) [compound 830079]     human SMAD7 mRNA  False
4  830167 (antisense kT*kT*kT*dA*d[5mC]*dA*d[5mC]*dA*d[5mC]*d[5mC]*d[5mC]*d[5mC]*dA*kG*kG*kG) [compound 830167]     human SMAD7 mRNA   True
